The values you see were collected from the SangsterLogP compilation.

Criterion: logP meeting or surpassing 1. Met: 1.0. Not met: 0.0.

1. Cc1cnc(NS(=O)(=O)c2ccc(N)cc2)nc1 :: 0.0
2. CC(=O)Nc1ccccc1C(=O)O :: 1.0
3. CC1(C)S[C@@H]2[C@H](NC(=O)[C@H](N)c3ccccc3)C(=O)N2[C@H]1C(=O)O :: 1.0
4. Nc1ccn([C@H]2C[C@H](F)[C@@H](CO)O2)c(=O)n1 :: 0.0
5. N#CCc1ccccc1 :: 1.0

Let's switch to this compound now.
Check if logP >= 1 (inclusive). Item: `CC(=O)Nc1ccc(F)cc1` 1.0

---

reportedEndpoint: logP
The reply should be a number, written without any unit.

// below: answered molecules
1) CCCCOc1cc(C(=O)NCCN(CC)CC)c2ccccc2n1 :: 4.4
2) Oc1ncnc2[nH]ncc12 :: -0.55
3) Nc1cccc(O)c1 :: 0.21
4) CCc1ccccc1OCC(=O)O :: 2.53
5) O=[N+]([O-])c1cc(Br)c(O)c(Br)c1 :: 3.57

Here is the next item to consider.
Using known records, supply logP for `C=CCNCC` 0.81

---

Let's look at some compounds and their measured logP.

Using known records, supply logP for `Clc1cccc2cccnc12` 2.44

Using known records, supply logP for `CCCCCN` 1.49

Using known records, supply logP for O=C(NC(CO)C(O)c1ccc([N+](=O)[O-])cc1)C(Br)(Br)Br (configuration not stated) 2.17

Using known records, supply logP for `CCN` -0.13

Using known records, supply logP for `c1ccc2c(c1)ccc1c3ccccc3ccc21` 5.81

Using known records, supply logP for `O=C1CCCO1` -0.64

Using known records, supply logP for `Cc1cc(=O)oc2cc(O)ccc12` 1.9

Using known records, supply logP for CCC(C)c1ccccc1OC(=O)NC (configuration not stated) 2.78

Using known records, supply logP for `CC#N` -0.34

Using known records, supply logP for `C[C@]12CCC(=O)C=C1CC[C@@H]1[C@@H]2[C@@H](O)C[C@]2(C=O)[C@@H](C(=O)CO)CC[C@@H]12` 1.08

Using known records, supply logP for `NCC(F)(F)F` 0.24

Using known records, supply logP for `O=c1ccn([C@H]2C[C@H](F)[C@@H](CO)O2)c(=O)[nH]1` -0.49

Using known records, supply logP for `Nc1ccc(Cl)c(Cl)c1` 2.69

Using known records, supply logP for `Cn1cccc1` 1.21

Using known records, supply logP for `Nc1nc2c(ncn2[C@@H]2O[C@H](CO)[C@@H](O)[C@H]2O)c(=O)[nH]1` -1.9

Using known records, supply logP for `Clc1ccccc1` 2.84

Using known records, supply logP for `CCN(CC)c1ccccc1` 3.31

---

Let's look at some compounds and their measured logP.

Using known records, supply logP for `CCC1(c2ccccc2)C(=O)NC(=O)NC1=O` 1.47

---

reportedEndpoint: logP

1) CC(=O)N(C)c1ccccc1 :: 1.12
2) NCCCCc1ccccc1 :: 2.4
3) Cc1cccc(Nc2ccccc2C(=O)O)c1C :: 5.12
4) N#Cc1ccc([N+](=O)[O-])cc1 :: 1.19
5) CCCC(C)=O :: 0.91

Here is the next item to consider.
Using known records, supply logP for `O=C(O)c1ccc([N+](=O)[O-])cc1` 1.89
